Known aptazyme ON/OFF ratio of a selection of variants
B1: Pistol ribozyme (parent)
chain: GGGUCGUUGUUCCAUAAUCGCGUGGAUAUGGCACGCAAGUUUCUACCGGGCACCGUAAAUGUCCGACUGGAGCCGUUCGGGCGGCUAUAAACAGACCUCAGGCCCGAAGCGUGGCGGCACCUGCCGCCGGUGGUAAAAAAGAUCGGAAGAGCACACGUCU

- Variants of: B1
- procedure_text: aptazyme ON/OFF ratio, guanine; higher = stronger switching; co-transcriptional cleavage with and without guanine
property_label: aptazyme ON/OFF ratio

mutant | property_label | numeric_result
U7G U8C U10G U11C C12G | aptazyme ON/OFF ratio | 2.08
U7C U8G G9A U11C C12G C13G | aptazyme ON/OFF ratio | 1.17
U7G U10A U11A C12A C13A | aptazyme ON/OFF ratio | 1.14
U7G U8C G9U U11A C12A C13G | aptazyme ON/OFF ratio | 1.14
U7A U8G U10G U11C C12A | aptazyme ON/OFF ratio | 1.21
U8A U10G U11C C12U C13U | aptazyme ON/OFF ratio | 1.2
U8A G9A U11A C12U | aptazyme ON/OFF ratio | 1.05
U7A U10C C12A C13G | aptazyme ON/OFF ratio | 1.12
U8G G9C U10C C12G | aptazyme ON/OFF ratio | 1.08
U7G U8C G9U U10G C12U C13U | aptazyme ON/OFF ratio | 1.34
U7C G9U U10C U11C C12A | aptazyme ON/OFF ratio | 1.06
U7G U8G G9U U11C C12A | aptazyme ON/OFF ratio | 1.8
U7A U8C G9U U10A U11C C12G C13A | aptazyme ON/OFF ratio | 1.23
U8C G9U U10A U11G C12U | aptazyme ON/OFF ratio | 1.43
U7A U8G G9C C12A C13U | aptazyme ON/OFF ratio | 1.29
U7G G9C U11G C12G C13G | aptazyme ON/OFF ratio | 1.36
U7A U8G G9C U10A U11G C12A C13G | aptazyme ON/OFF ratio | 1.18
U7G U8A U10G C12G C13G | aptazyme ON/OFF ratio | 1.18
U8C U10A C12A C13U | aptazyme ON/OFF ratio | 1.18
U7G U8G G9A U10A C12A | aptazyme ON/OFF ratio | 1.46
U7C U8C G9C U10G U11G C12G C13U | aptazyme ON/OFF ratio | 1.05
U7A U8A U10A U11C C12G C13U | aptazyme ON/OFF ratio | 1.15
